# study conditions: human gut metagenome, 24 h, 2 µM; note: call rule not given here
value type: Bacterial Biotransformation

Below, each entry is followed by its recorded Bacterial Biotransformation result.
molecule	value type	assay result
CN1CCC(=C2c3ccccc3CC(=O)c3sccc32)CC1.O=C(O)/C=C/C(=O)O [KETOTIFEN FUMARATE]	Bacterial Biotransformation	Compound NOT metabolized
CC(C)c1nc(N(C)S(C)(=O)=O)nc(-c2ccc(F)cc2)c1/C=C/[C@@H](O)C[C@@H](O)CC(=O)[O-].CC(C)c1nc(N(C)S(C)(=O)=O)nc(-c2ccc(F)cc2)c1/C=C/[C@@H](O)C[C@@H](O)CC(=O)[O-].[Ca+2] [ROSUVASTATIN CALCIUM]	Bacterial Biotransformation	Compound metabolized
Nc1nc(N)nc(-c2cc(Cl)ccc2Cl)n1.O=C(O)/C=C\C(=O)O [IRSOGLADINE MALEATE]	Bacterial Biotransformation	Compound NOT metabolized
CC#C[C@]1(O)CC[C@H]2[C@@H]3CCC4=CC(=O)CCC4=C3[C@@H](c3ccc(N(C)C)cc3)C[C@@]21C [MIFEPRISTONE]	Bacterial Biotransformation	Compound NOT metabolized
CCOC(=O)C1=C(C)NC(C)=C(C(=O)OC)C1c1cccc([N+](=O)[O-])c1 (stereo not drawn) [NITRENDIPINE]	Bacterial Biotransformation	Compound metabolized
COc1ccc([C@@H]2Sc3ccccc3N(CCN(C)C)C(=O)[C@@H]2OC(C)=O)cc1 [DILTIAZEM]	Bacterial Biotransformation	Compound NOT metabolized
OCCN(CCO)c1nc(N2CCCCC2)c2nc(N(CCO)CCO)nc(N3CCCCC3)c2n1 [DIPYRIDAMOLE]	Bacterial Biotransformation	Compound metabolized

--- query ---
So, CCN(CC)CCNC(=O)c1cc(S(C)(=O)=O)ccc1OC [TIAPRIDE] ? Its Bacterial Biotransformation was Compound NOT metabolized

----------
# study conditions: human gut metagenome, 24 h, 2 µM
value type: Bacterial Biotransformation

Consider the reported Bacterial Biotransformation for these compounds:
compound	assay result
C#C[C@]1(OC(C)=O)CC[C@H]2[C@@H]3CCC4=C[C@@H](OC(C)=O)CC[C@@H]4[C@H]3CC[C@@]21C [ETHYNODIOL DIACETATE]	Compound metabolized
Br.COc1ccc2c(c1)[C@]13CCCC[C@@H]1[C@H](C2)N(C)CC3.O [DEXTROMETHORPHAN HYDROBROMIDE]	Compound metabolized
N=C(N)NC(=O)Cc1c(Cl)cccc1Cl [GUANFACINE]	Compound NOT metabolized
COc1cc(NC(C)CCCN)c2ncccc2c1.O=P(O)(O)O.O=P(O)(O)O (stereo not given) [PRIMAQUINE PHOSPHATE]	Compound NOT metabolized
CNCC[C@H](Oc1cccc2ccccc12)c1cccs1 [DULOXETINE]	Compound NOT metabolized

Per the record, Cc1cc2c(s1)Nc1ccccc1N=C2N1CCN(C)CC1 [OLANZAPINE] has Bacterial Biotransformation of Compound NOT metabolized

Reported Bacterial Biotransformation ( C[C@]12CCC(=O)C=C1[C@@H]1C[C@@H]1[C@H]1[C@@H]3[C@@H]4C[C@@H]4[C@@]4(CCC(=O)O4)[C@@]3(C)CC[C@@H]12 [DROSPIRENONE] ) = Compound metabolized

What the record says about CC(=O)OCC(=O)[C@@]1(OC(C)=O)[C@@H](C)C[C@H]2[C@@H]3C[C@H](F)C4=CC(=O)C=C[C@]4(C)[C@@]3(F)[C@@H](O)C[C@@]21C [DIFLORASONE DIACETATE] : Bacterial Biotransformation is Compound metabolized

GET /value?item= O=C1C(CC[S+]([O-])c2ccccc2)C(=O)N(c2ccccc2)N1c1ccccc1 (stereo not given) [SULFINPYRAZONE] &field=Bacterial Biotransformation returns Compound metabolized

Measured Bacterial Biotransformation, CC(C)[C@H]1CC[C@H](C(=O)N[C@H](Cc2ccccc2)C(=O)O)CC1 [NATEGLINIDE] : Compound metabolized

What the record says about CC(C)(C)N.CCC[C@H](N[C@@H](C)C(=O)N1[C@H](C(=O)O)C[C@@H]2CCCC[C@@H]21)C(=O)OCC [PERINDOPRIL ERBUMINE] : Bacterial Biotransformation is Compound metabolized

// CC(=O)OCC(=O)NCCCOc1cccc(CN2CCCCC2)c1 [ROXATIDINE ACETATE] : Bacterial Biotransformation value = Compound metabolized

Reported Bacterial Biotransformation of CN1CCC[C@@H]1CCO[C@](C)(c1ccccc1)c1ccc(Cl)cc1.O=C(O)/C=C/C(=O)O [CLEMASTINE FUMARATE] : Compound metabolized

Given item COc1ccnc(C[S+]([O-])c2nc3ccc(OC(F)F)cc3[nH]2)c1OC (stereo not given) [PANTOPRAZOLE] , the value recorded as its Bacterial Biotransformation is Compound metabolized

So, CCN(CC)CCNC(=O)c1ccc(NC(C)=O)cc1 [ACECAINIDE] ? Its Bacterial Biotransformation was Compound NOT metabolized

----------
# assay overview: The drug is tested on Z-027 corresponding to metagenome with ENA study accession number: PRJEB37062 and ENA sample accession number: ERS12561826 for biotransformation under anaerobic condition. The drug concentrations were measured over 9 timepoints collected between 0 and 24 hours of incubation by liquid-chromatography-coupled mass spectrometry (LC–MS)
# study conditions: 2 µM
value type: Bacterial Biotransformation

smiles structure	assay result
CCOC(=O)[C@H](CCc1ccccc1)N[C@@H](C)C(=O)N1Cc2ccccc2C[C@H]1C(=O)O	Compound NOT metabolized
COc1ccc([C@@H]2Sc3ccccc3N(CCN(C)C)C(=O)[C@@H]2OC(C)=O)cc1	Compound NOT metabolized
CC[C@@]1(O)C(=O)OCc2c1cc1n(c2=O)Cc2cc3c(CN(C)C)c(O)ccc3nc2-1	Compound NOT metabolized
C[C@]12C=CC(=O)C=C1CC[C@@H]1[C@@H]2C(=O)C[C@@]2(C)[C@H]1CC[C@]2(O)C(=O)CO	Compound NOT metabolized

----------
# study conditions: human gut metagenome, 24 h, 2 µM
value type: Bacterial Biotransformation

Some compounds with recorded Bacterial Biotransformation:
compound	assay result
CN1CCN2c3ccccc3Cc3ccccc3C2C1 (configuration not stated) [MIANSERIN]	Compound NOT metabolized
CN(C)CCOC(C)(c1ccccc1)c1ccccn1.O=C(O)CCC(=O)O (configuration not stated) [DOXYLAMINE SUCCINATE]	Compound NOT metabolized
CCOc1ccccc1OCCN[C@H](C)Cc1ccc(OC)c(S(N)(=O)=O)c1.Cl [TAMSULOSIN HYDROCHLORIDE]	Compound metabolized
c1ccc2[nH]c(-c3cscn3)nc2c1 [THIABENDAZOLE]	Compound metabolized
Cc1nc(Nc2ncc(C(=O)Nc3c(C)cccc3Cl)s2)cc(N2CCN(CCO)CC2)n1 [DASATINIB ANHYDROUS]	Compound metabolized

Value of measured Bacterial Biotransformation for the entry COc1ccc2cc([C@H](C)C(=O)O)ccc2c1 [NAPROXEN] : Compound metabolized

Please fill in: Bacterial Biotransformation reported for O=C1C(CC[S+]([O-])c2ccccc2)C(=O)N(c2ccccc2)N1c1ccccc1 (configuration not stated) [SULFINPYRAZONE] = Compound metabolized

Input CC[C@H](C)C(=O)O[C@H]1CCC=C2C=C[C@H](C)[C@H](CC[C@@H]3C[C@@H](O)CC(=O)O3)[C@H]21 [MEVASTATIN] . Output Bacterial Biotransformation: Compound metabolized

// Bacterial Biotransformation value for Br.CN1CCC[C@@H]1Cc1c[nH]c2ccc(CCS(=O)(=O)c3ccccc3)cc12 [ELETRIPTAN HYDROBROMIDE] : Compound metabolized

Notebook: CCCC(C)(COC(N)=O)COC(=O)NC(C)C (configuration not stated) [CARISOPRODOL] , Bacterial Biotransformation read as Compound NOT metabolized

Value of Bacterial Biotransformation reported for the compound CC1=C(CC(=O)O)c2cc(F)ccc2/C1=C\c1ccc([S+](C)[O-])cc1 (configuration not stated) is Compound metabolized

----------
# assay overview: The drug is tested on Z-024 corresponding to pig gut metagenome with ENA study accession number: PRJEB37062 and ENA sample accession number: ERS12561823 for biotransformation under anaerobic condition. The drug concentrations were measured over 9 timepoints collected between 0 and 24 hours of incubation by liquid-chromatography-coupled mass spectrometry (LC–MS)
# study conditions: 2 µM
value type: Bacterial Biotransformation

See these solved cases before continuing.
molecule	value type	assay result
C=CC[C@@H]1/C=C(\C)C[C@H](C)C[C@H](OC)[C@H]2O[C@@](O)(C(=O)C(=O)N3CCCC[C@H]3C(=O)O[C@H](/C(C)=C/[C@@H]3CC[C@@H](O)[C@H](OC)C3)[C@H](C)[C@@H](O)CC1=O)[C@H](C)C[C@@H]2OC.O [TACROLIMUS]	Bacterial Biotransformation	Compound NOT metabolized
CCOc1ccccc1OCCN[C@H](C)Cc1ccc(OC)c(S(N)(=O)=O)c1.Cl [TAMSULOSIN HYDROCHLORIDE]	Bacterial Biotransformation	Compound NOT metabolized
CCc1oc2ccccc2c1C(=O)c1cc(Br)c(O)c(Br)c1 [BENZBROMARONE]	Bacterial Biotransformation	Compound NOT metabolized
COc1ccc2c(c1)c(CC(=O)O)c(C)n2C(=O)c1ccc(Cl)cc1 [INDOMETHACIN]	Bacterial Biotransformation	Compound NOT metabolized
CC12CC3CC(C)(C1)CC(N)(C3)C2 [MEMANTINE]	Bacterial Biotransformation	Compound NOT metabolized

The molecule listed as CC(C)(C)NC(=O)[C@H]1CC[C@H]2[C@@H]3CC[C@H]4NC(=O)C=C[C@]4(C)[C@H]3CC[C@]12C [FINASTERIDE] shows Bacterial Biotransformation equal to Compound metabolized

For CC(=O)Nc1ccc(OC(C)=O)cc1 [DIACETAMATE] the molecule record lists Bacterial Biotransformation as Compound metabolized
